Please go through the items and note down their IC50.
Target: CYP3A4 (Homo sapiens (Human), UniProt P08684)
Sequence (P08684 whole entry): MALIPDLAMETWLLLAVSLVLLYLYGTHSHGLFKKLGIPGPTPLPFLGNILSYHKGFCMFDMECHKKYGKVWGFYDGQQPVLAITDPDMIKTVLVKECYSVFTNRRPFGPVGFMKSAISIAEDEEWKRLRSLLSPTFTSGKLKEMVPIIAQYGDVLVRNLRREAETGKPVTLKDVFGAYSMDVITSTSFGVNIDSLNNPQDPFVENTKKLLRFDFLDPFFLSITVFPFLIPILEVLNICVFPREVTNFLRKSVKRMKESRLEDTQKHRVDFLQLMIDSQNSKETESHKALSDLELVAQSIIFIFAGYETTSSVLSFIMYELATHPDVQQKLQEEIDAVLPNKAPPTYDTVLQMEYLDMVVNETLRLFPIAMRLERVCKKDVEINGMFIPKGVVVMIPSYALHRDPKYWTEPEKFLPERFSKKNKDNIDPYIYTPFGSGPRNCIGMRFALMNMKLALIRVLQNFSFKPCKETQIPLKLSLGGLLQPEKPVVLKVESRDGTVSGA
Experiment: CYP3A4 inhibition assay (human liver microsomes, testosterone 6β-hydroxylation)
Conditions: read-out: CYP3A4 IC50, 40 μM testosterone

Reported IC50 for Cc1ccc(-n2nccn2)c(C(=O)N2CCOC[C@H]2Cc2cccc(-n3cccn3)c2)n1 was > 50 µM

Reported IC50 for Cc1ccc(C(=O)N2C[C@@H](C)OC[C@H]2Cc2cccc(-c3ncccn3)c2)c(-n2nccn2)c1 was > 50 µM

Reported IC50 for Cc1ccc(C(=O)N2CCOC[C@H]2Cc2cccc(-n3nccn3)c2F)c(-n2nccn2)c1 was > 50 µM
